Experiment: Degradation of prodrugs and release of parent drug in rat plasma
Assay type: in vitro ADME
Conditions: male, Hannover-Janvier RjHan, rat plasma (Li-heparin), 37° C., 4 h, percent area of prodrug at t0
Label 1 (yes) when recovery at 4 h, 39 µg/mL < 70%; otherwise 0 (no).

Compound	Classification
N#CC1(N(COC(=O)CCC(=O)O)C(=O)c2cc(-c3cnn(-c4c(Cl)cc(C(F)(C(F)(F)F)C(F)(F)F)cc4OC(F)(F)F)c3)ccc2Cl)CC1	0 (no)
Cn1nc(C(F)(F)C(F)(F)F)c(C(F)(F)F)c1-n1cc(-c2ccc(Cl)c(C(=O)N(COC(=O)c3ccc(C(=O)O)cc3)C3(C#N)CC3)c2)cn1	0 (no)
N#CC1(N(COC(=O)c2ccc(C(=O)O)cc2)C(=O)c2cc(-c3cnn(-c4c(Cl)cc(C(F)(C(F)(F)F)C(F)(F)F)cc4OC(F)(F)F)c3)ccc2Cl)CC1	0 (no)
Cn1nc(C(F)(F)C(F)(F)F)c(C(F)(F)F)c1-n1cc(-c2ccc(Cl)c(C(=O)N(COC(=O)[C@H]3CC[C@H](C(=O)O)CC3)C3(C#N)CC3)c2)cn1	1 (yes)
N#CC1(N(COC(=O)CCCC(=O)O)C(=O)c2cc(-c3cnn(-c4c(Cl)cc(C(F)(C(F)(F)F)C(F)(F)F)cc4OC(F)(F)F)c3)ccc2Cl)CC1	1 (yes)

stdin: Regarding `N#CC1(N(COC(=O)Cc2ccc(C(=O)O)cc2)C(=O)c2cc(-c3cnn(-c4c(Cl)cc(C(F)(C(F)(F)F)C(F)(F)F)cc4OC(F)(F)F)c3)ccc2Cl)CC1` , kindly confirm whether its recovery at 4 h, 39 µg/mL is beneath 70%.
stdout: 1 (yes)

stdin: Below 70% on recovery at 4 h, 39 µg/mL? Entry `Cn1nc(C(F)(F)C(F)(F)F)c(C(F)(F)F)c1-n1cc(-c2ccc(Cl)c(C(=O)N(COC(=O)/C=C/C(=O)O)C3(C#N)CC3)c2)cn1`
stdout: 1 (yes)

stdin: Just wondering, is recovery at 4 h, 39 µg/mL of `Cn1nc(C(F)(F)C(F)(F)F)c(C(F)(F)F)c1-n1cc(-c2ccc(Cl)c(C(=O)N(COC(=O)CCCC(=O)O)C3(C#N)CC3)c2)cn1` below 70%?
stdout: 1 (yes)

stdin: Could you please tell me whether recovery at 4 h, 39 µg/mL recorded for `N#CC1(N(COC(=O)/C=C/C(=O)O)C(=O)c2cc(-c3cnn(-c4c(Cl)cc(C(F)(C(F)(F)F)C(F)(F)F)cc4OC(F)(F)F)c3)ccc2Cl)CC1` is less than 70%?
stdout: 1 (yes)

stdin: Consider `N#CC1(N(COC(=O)[C@H]2CC[C@H](C(=O)O)CC2)C(=O)c2cc(-c3cnn(-c4c(Cl)cc(C(F)(C(F)(F)F)C(F)(F)F)cc4OC(F)(F)F)c3)ccc2Cl)CC1` . Does its recovery at 4 h, 39 µg/mL lie strictly below 70%?
stdout: 0 (no)

stdin: A record lists Cn1nc(C(F)(F)C(F)(F)F)c(C(F)(F)F)c1-n1cc(-c2ccc(Cl)c(C(=O)N(COC(=O)C3CC3C(=O)O)C3(C#N)CC3)c2)cn1 (centres unmarked) . Is its recovery at 4 h, 39 µg/mL below 70%?
stdout: 1 (yes)

Hey, just so you know, these numbers are from patent US20220306585A1.
